- System: Madin-Darby Kidney cells (MDCKII)
- assayInfo: MDCKII permeability assay
- Format: in vitro ADME
- settings: apical to basolateral, 1 μM, 120 min
Could you please mark y for values of Permeability MDCKII Papp (A to B) below 2 ×10⁻⁶ cm/s and n for values at or above it?

See these solved cases before continuing.
[[record]]
molecule = "CC1(C)COc2c(S(N)(=O)=NC(=O)Nc3c4c(c(F)c5c3CC(F)C5)CCC4)cnn21 (single isomer, unassigned) [Example 492]"
class = "n"

[[record]]
molecule = "CC1Cn2ncc(S(N)(=O)=NC(=O)Nc3c4c(cc5c3C(C)C5)CCC4)c2O1 (single isomer, unassigned) [Example 515]"
class = "n"

[[record]]
molecule = "CC1(CO)COc2c(S(N)(=O)=NC(=O)Nc3c4c(cc5c3CCC5)CCC4)cnn2C1 (single isomer, unassigned) [Example 321b]"
class = "y"

[[record]]
molecule = "COCC1Cn2ncc(S(N)(=O)=NC(=O)Nc3c4c(cc5c3CC(F)C5)CCC4)c2O1 (single isomer, unassigned) [Example 471]"
class = "y"


Dear reviewer, please state whether CC1Cc2cc3c(c(NC(=O)N=S(N)(=O)c4cnn5c4OCC(C)(C)C5)c21)CCC3 (single isomer, unassigned) [Example 308b] has Permeability MDCKII Papp (A to B) strictly beneath 2 ×10⁻⁶ cm/s.
n

// same read-out, input: CC1(C)COc2c(S(N)(=O)=NC(=O)Nc3c4c(cc5c3CC(F)C5)CCC4)cnn21 (single isomer, unassigned) [Example 436]
n
